# Target Or Test System: DAT (Rattus norvegicus)
# Sequence (P23977 whole entry): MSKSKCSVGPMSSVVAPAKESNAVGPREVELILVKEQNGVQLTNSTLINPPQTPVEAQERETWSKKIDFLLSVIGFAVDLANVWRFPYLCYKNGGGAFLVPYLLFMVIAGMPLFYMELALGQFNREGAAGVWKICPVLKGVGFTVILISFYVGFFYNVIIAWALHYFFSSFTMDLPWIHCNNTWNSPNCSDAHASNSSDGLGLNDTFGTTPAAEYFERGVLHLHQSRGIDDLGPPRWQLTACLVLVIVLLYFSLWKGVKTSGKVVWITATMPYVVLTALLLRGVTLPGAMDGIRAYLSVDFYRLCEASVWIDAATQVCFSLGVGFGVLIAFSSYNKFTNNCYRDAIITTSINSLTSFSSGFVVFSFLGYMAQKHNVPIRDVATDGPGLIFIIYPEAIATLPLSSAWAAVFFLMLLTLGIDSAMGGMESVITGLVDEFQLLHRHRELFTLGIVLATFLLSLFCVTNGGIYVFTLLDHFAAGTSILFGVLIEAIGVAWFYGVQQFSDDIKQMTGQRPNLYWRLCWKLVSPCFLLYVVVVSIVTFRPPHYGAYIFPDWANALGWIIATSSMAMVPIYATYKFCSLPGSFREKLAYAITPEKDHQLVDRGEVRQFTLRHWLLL
# Assay Comment: [3H]DA release from rat brain synaptosomes
# Format: biochemical
# Design: from tissue; synaptosomes for uptake and release
Assay Metric: EC50 (nM)
Numbers only, in nM.

Task: Please report EC50 for the following compound: CNC(C)Cc1ccc2c(c1)OCO2 (racemic)
Output: 1420

====

# Target Or Test System: Human serotonin 5HT2B receptor (Homo sapiens)
# Sequence (P41595 whole entry): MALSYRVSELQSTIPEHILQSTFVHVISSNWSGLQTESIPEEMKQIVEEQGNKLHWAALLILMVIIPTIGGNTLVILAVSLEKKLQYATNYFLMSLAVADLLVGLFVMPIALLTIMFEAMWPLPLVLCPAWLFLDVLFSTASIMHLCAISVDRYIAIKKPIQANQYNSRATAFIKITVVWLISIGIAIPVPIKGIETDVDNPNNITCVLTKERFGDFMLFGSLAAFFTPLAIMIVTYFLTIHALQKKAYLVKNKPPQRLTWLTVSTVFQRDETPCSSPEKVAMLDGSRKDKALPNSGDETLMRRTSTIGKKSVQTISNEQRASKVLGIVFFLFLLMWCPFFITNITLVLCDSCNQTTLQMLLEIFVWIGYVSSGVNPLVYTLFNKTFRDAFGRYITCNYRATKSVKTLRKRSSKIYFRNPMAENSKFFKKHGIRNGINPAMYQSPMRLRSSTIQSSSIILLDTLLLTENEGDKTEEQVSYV
Assay Metric: pIC50
Give bare numbers, as −log10 of the molar value.

Task: State recorded pIC50 with Human serotonin 5HT2B receptor (Homo sapiens), entry CNC(C)C(=O)c1ccc2c(c1)OCO2 (stereo not shown) , no comment.
Output: 5.37

====

# Assay Comment: Rat plasma pharmacokinetics by administration route
# Assay type: in vivo
# Test Context: male, SD, PO 15 mg/kg
Assay Metric: half-life (h)
Numbers only, in h.

Task: Please report half-life for the following compound: CNC(C)C(=O)c1ccc2c(c1)OCO2 (stereo not shown)
Output: 2.27

====

# Assay Comment: Rat plasma pharmacokinetics by administration route
# Type: in vivo
# Test Context: male, SD, PO 15 mg/kg
Assay Metric: AUC(0-inf)
Answer as a quantity: numeral, then unit.

Task: Please report AUC(0-inf) for the following molecule: CNC(C)C(=O)c1ccc2c(c1)OCO2 (stereo not shown)
Output: 2290 ng·h/mL

====

# Assay Comment: Rat plasma pharmacokinetics by administration route
# Type: in vivo
# Test Context: male, SD, IP 15 mg/kg
Assay Metric: Cmax (ng/mL)
Answers are plain numbers, in ng/mL.

Task: Please report Cmax for the following compound: CNC(C)C(=O)c1ccc2c(c1)OCO2 (stereo not shown)
Output: 1250

====

# Assay Comment: Rat plasma pharmacokinetics by administration route
# Type: in vivo
# Test Context: male, SD, IM 15 mg/kg
Assay Metric: Cmax (ng/mL)
Give bare numbers, in ng/mL.

Task: Please report Cmax for the following molecule: CNC(C)C(=O)c1ccc2c(c1)OCO2 (stereo not shown)
Output: 5400

====

# Assay Comment: Rat plasma pharmacokinetics by administration route
# Type: in vivo
# Test Context: male, SD, PO 15 mg/kg
# Excerpt: Plasma was collected 0.25, 0.5, 1-, 2-, 4-, and 8-hours post-dose.
Assay Metric: Cmax (ng/mL)
Give bare numbers, in ng/mL.

Task: Please report Cmax for the following compound: CNC(C)C(=O)c1ccc2c(c1)OCO2 (stereo not shown)
Output: 552

====

# Target Or Test System: NET (Rattus norvegicus, UniProt Q63380)
# Sequence (Q63380 1-617): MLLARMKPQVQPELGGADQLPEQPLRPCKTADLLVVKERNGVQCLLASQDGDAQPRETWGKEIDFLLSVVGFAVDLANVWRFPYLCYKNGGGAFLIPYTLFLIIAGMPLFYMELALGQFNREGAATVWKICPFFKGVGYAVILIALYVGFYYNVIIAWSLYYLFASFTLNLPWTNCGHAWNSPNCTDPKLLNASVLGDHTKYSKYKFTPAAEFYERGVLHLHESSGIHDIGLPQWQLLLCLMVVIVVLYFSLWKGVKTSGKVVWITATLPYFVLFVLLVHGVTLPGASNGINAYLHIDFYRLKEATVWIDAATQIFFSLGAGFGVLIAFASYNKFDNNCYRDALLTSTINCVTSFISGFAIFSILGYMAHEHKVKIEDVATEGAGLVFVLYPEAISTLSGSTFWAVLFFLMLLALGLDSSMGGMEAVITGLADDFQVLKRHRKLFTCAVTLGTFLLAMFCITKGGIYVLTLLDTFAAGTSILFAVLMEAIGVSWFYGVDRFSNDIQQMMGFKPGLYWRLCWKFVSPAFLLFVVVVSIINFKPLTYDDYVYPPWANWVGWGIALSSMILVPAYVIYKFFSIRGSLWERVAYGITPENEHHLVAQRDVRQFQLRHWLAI
# Assay Comment: [3H]NE release from rat brain synaptosomes
# Assay type: biochemical
# Set-up: from tissue; synaptosomes for uptake and release
Assay Metric: pEC50
Answers are plain numbers, as −log10 of the molar value.

Task: Please report pEC50 for the following molecule: CNC(C)Cc1ccc2c(c1)OCO2 (racemic)
Output: 6.31

====

# Target Or Test System: NET (Rattus norvegicus)
# Assay Comment: [3H]NE release from rat brain synaptosomes
# Format: biochemical
# Design: from tissue; synaptosomes for uptake and release
# Test Context: rat brain synaptosomes; read-out: Neurotransmitter release: EC50
# Protocol: Test compounds and synaptosomes were prepared as described for uptake inhibition assays. Synaptosomes treated with [^3H]5-HT, [^3H]DA or [^3H]NE were loaded onto filter chambers containing GF/C filters and placed in a superfusion system. […] Scintillation cocktail was added, and the filters counted to determine residual radioactivity. […] The drug-evoked release was then expressed as a percentage of the basal release. […] Potassium-stimulated release was calculated as a percentage of basal release. […]
Assay Metric: pEC50
Numbers only, as −log10 of the molar value.

Task: Please report pEC50 for the following compound: CNC(C)C(=O)c1ccc2c(c1)OCO2 (stereo not shown)
Output: 6.48
